Documented pIC50 across a set of compounds
Tested on: MDA-MB-231: breast cancer
Experiment: In vitro anti-proliferative activity, BrdU incorporation, MDA-MB-231
Format: cell-based
Conditions: MDA-MB-231 cells, 50% inhibition of proliferation, BrdU incorporation into DNA
# reply with the number alone; pIC50 is -log10 of concentration in mol/L

COMPOUND	pIC50
CCOc1cc2c(cc1OS(N)(=O)=O)CC[C@@H]1[C@@H]2CC[C@]2(C)C(=O)CC[C@@H]12	5.12
CC=C1CC[C@H]2[C@@H]3CCc4cc(N)c(OC)cc4[C@H]3CC[C@]12C	5.71
CCOc1cc2c(cc1NC=O)CC[C@@H]1[C@@H]2CC[C@]2(C)C(=O)CC[C@@H]12 [Compound 44A]	4.60

Let us move to another entry and its pIC50.
// compound `COc1cc2c(cc1C(N)=O)CC[C@@H]1[C@@H]2CC[C@]2(C)CCC[C@@H]12` , assay MDA-MB-231: breast cancer, pIC50 value: 5.28
